Biological target: T1, rat NK1 receptor (rat, UniProt P14600)
T1 chain: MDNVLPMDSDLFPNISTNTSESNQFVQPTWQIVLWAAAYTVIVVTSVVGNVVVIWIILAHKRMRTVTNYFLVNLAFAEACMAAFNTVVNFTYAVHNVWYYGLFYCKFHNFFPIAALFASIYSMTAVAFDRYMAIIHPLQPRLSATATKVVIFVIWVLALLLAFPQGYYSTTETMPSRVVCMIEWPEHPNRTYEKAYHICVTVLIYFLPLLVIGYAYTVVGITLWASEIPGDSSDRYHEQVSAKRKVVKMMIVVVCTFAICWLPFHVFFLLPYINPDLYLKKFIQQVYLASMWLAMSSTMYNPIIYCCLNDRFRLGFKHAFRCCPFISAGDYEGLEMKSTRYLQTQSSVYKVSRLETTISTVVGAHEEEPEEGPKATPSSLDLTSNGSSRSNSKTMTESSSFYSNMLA
Assay: competition
Non-standard residues stand in square brackets, D forms with d. Primed or numbered codes have the meaning given here. No end group written: not given here. *: point of attachment. NH(3,5-(CF3)2-benzyl) = FC(F)(F)c1cc(CN*)cc(C(F)(F)F)c1; NMePhe(4-F) = CN[C@@H](Cc1ccc(F)cc1)C(=O)O; Phe(4-F) = N[C@@H](Cc1ccc(F)cc1)C(=O)O; NMeF = CN[C@@H](Cc1ccccc1)C(=O)O; 4‑Apac = not defined here; 4Abz = Nc1ccc(C(=O)O)cc1; 4Amb′ = not defined here; βAla = NCCC(=O)O
Define the label as met when Ki is strictly less than 70 nM and as not met in all remaining cases.

Is it true that Ki reported for Y[dA]G[NMeF][4Amb′]PLW-{NH(3,5-(CF3)2-benzyl)} (reading uncertain) [AKG125] is less than 70 nM?
met

Regarding Y[dA]G[Phe(4-F)]GPLW-{NH(3,5-(CF3)2-benzyl)} [AKG130] , kindly confirm whether its Ki is beneath 70 nM.
not met

Consider Y[dA]G[NMeF][βAla]PLW-{NH(3,5-(CF3)2-benzyl)} [AKG119] . Does its Ki lie strictly below 70 nM?
met

Decide: Ki of XAGFMPLW (not fully specified; Dmt1, D-Ala2, NMePhe4 as described; C-terminal benzylamide) [AKG107] strictly below 70 nM?
met

Determine if Y[dA]G[NMeF]GPLW-{NH(3,5-(CF3)2-benzyl)} [AKG113] shows Ki strictly lower than 70 nM.
met

Ki strictly < 70 nM for this binder? Y[dA]G[NMePhe(4-F)]GPLW-{NH(3,5-(CF3)2-benzyl)} [AKG131]
not met

Find out if reported Ki for Y[dA]G[NMeF][4‑Apac]PLW-{NH(3,5-(CF3)2-benzyl)} (reading uncertain) [AKG177] is less than 70 nM
not met

Below 70 nM on Ki? Entry Y[dA]G[NMeF][4Abz]PLW-{NH(3,5-(CF3)2-benzyl)} [AKG176]
not met

// data source = patent US11141452
